- System: biotinyl-Ile-oxazolone
- TEST METHOD NOTES: self-aminoacylation, catalytic enhancement (BIO) (fold over background); higher = more active; k-Seq, kA / k0A0; sequences stand for … in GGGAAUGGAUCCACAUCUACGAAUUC…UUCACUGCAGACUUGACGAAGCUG
This sample holds only a part of the variants without activity.
Consider the following sequences; for each one, report its self-aminoacylation.
Give the figure by itself; no unit, no explanation.

Task item: Query: self-aminoacylation; subject: AUUACCCUGGUCAUCGAGUUA [Fam2.1 aminoacylation ribozyme variant]
Reply: 4.08

Task item: Also, AAGGUUGCUAAUAGUCGCAAU [Fam3.1 aminoacylation ribozyme variant] please.
Reply: 1.99

Task item: Also, CUUCACGUAGGUCAUCGGGUG [Fam2.2 aminoacylation ribozyme variant] please.
Reply: 3.59

Task item: Also, AUUAACCUGGUCACCGAGUGA [Fam2.1 aminoacylation ribozyme variant] please.
Reply: 3.88

Task item: Also, AUCCACCCAGGUCAUCGGGUG [Fam2.2 aminoacylation ribozyme variant] please.
Reply: 4.15

Task item: Also, CCACACAUCAAGCCAUCGGUC [Fam1B.1 aminoacylation ribozyme variant] please.
Reply: 1.19

Task item: Also, AUUCGCCUAGGUCAUCGUGUG [Fam2.2 aminoacylation ribozyme variant] please.
Reply: 1.04

Task item: Also, ACUACCCUGGUCAUCGAGUGU [Fam2.1 aminoacylation ribozyme variant] please.
Reply: 16.3

Task item: Also, AUUACCCAGUUCAUCGAGUGA [Fam2.1 aminoacylation ribozyme variant] please.
Reply: 2.14

* * *

- Tested on: biotinyl-Leu-oxazolone
- TEST METHOD NOTES: self-aminoacylation, catalytic enhancement (BLO) (fold over background); higher = more active; k-Seq, kA / k0A0; sequences stand for … in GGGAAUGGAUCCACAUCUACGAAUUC…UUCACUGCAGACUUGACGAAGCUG
Variants at the floor of the assay were thinned out.
REPORTED ENDPOINT: self-aminoacylation
Give the figure by itself; no unit, no explanation.

Task item: Query: self-aminoacylation; subject: AUUCUCCUAGGUCAUCGAGUG [Fam2.2 aminoacylation ribozyme variant]
Reply: 6.3

Task item: Also, CUACUUCAAACAAUCGGACUU [Fam1A.1 aminoacylation ribozyme variant] please.
Reply: 0.665

Task item: Also, AUUACCCUAGUCACCGAGUGA [Fam2.1 aminoacylation ribozyme variant] please.
Reply: 6.48

Task item: Also, AUCCACAUAGGUCAUCGGGUG [Fam2.2 aminoacylation ribozyme variant] please.
Reply: 12.1

Task item: Also, AAGUUCGCUAAUUGUCGCAAG [Fam3.1 aminoacylation ribozyme variant] please.
Reply: 2.06

Task item: Also, AAGUUUGCUAAUAGACACAAG [Fam3.1 aminoacylation ribozyme variant] please.
Reply: 0.654

Task item: Also, AAGUUUUAUAAUAGUCGCAAG [Fam3.1 aminoacylation ribozyme variant] please.
Reply: 1.61

Task item: Also, AUUCACCUGGGUCCUCGGGUG [Fam2.2 aminoacylation ribozyme variant] please.
Reply: 7.74

Task item: Also, CUGCUUCAAACAAUCGGUCUC [Fam1A.1 aminoacylation ribozyme variant] please.
Reply: 2.47

* * *

- System: biotinyl-Phe-oxazolone
- TEST METHOD NOTES: self-aminoacylation, catalytic enhancement (BFO) (fold over background); higher = more active; k-Seq, kA / k0A0; sequences stand for … in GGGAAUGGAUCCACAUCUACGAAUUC…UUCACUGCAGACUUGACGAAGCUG
Fewer inactive variants are shown than the library holds.
REPORTED ENDPOINT: self-aminoacylation
Give the figure by itself; no unit, no explanation.

Task item: Query: self-aminoacylation; subject: CUACUUCAAACAAUGGGUCUC [Fam1A.1 aminoacylation ribozyme variant]
Reply: 0.715

Task item: Also, CUACUUCACACAACCGGUCUG [Fam1A.1 aminoacylation ribozyme variant] please.
Reply: 1.07

Task item: Also, CUACUCCAAACAAUCGGUCUG [Fam1A.1 aminoacylation ribozyme variant] please.
Reply: 3.09

Task item: Also, CUACUUCAAACAAUCAGCCUG [Fam1A.1 aminoacylation ribozyme variant] please.
Reply: 21

Task item: Also, UUACACUUCAAGCAAUCGGUC [Fam1B.1 aminoacylation ribozyme variant] please.
Reply: 30.4

Task item: Also, CCCCACUACAAGCAAUCGGUC [Fam1B.1 aminoacylation ribozyme variant] please.
Reply: 2.24

Task item: Also, CUACUUCAAACAAUCGGACUG [Fam1A.1 aminoacylation ribozyme variant] please.
Reply: 17.5

Task item: Also, AUUACCAUGGUCAUGGAGUGA [Fam2.1 aminoacylation ribozyme variant] please.
Reply: 24.3

Task item: Also, AUUCACCUAGGUCCUCGUGUG [Fam2.2 aminoacylation ribozyme variant] please.
Reply: 5.79

Task item: Also, AUUACCAUGGUCAUCUAGUGA [Fam2.1 aminoacylation ribozyme variant] please.
Reply: 59.9

Task item: Also, CCACGCUUCAAGCAAUGGGUC [Fam1B.1 aminoacylation ribozyme variant] please.
Reply: 0.735

Task item: Also, CUACUUCAAACCAUCGGUCCG [Fam1A.1 aminoacylation ribozyme variant] please.
Reply: 0.607

Task item: Also, AUUCACCCAGGUCAUCUGGUG [Fam2.2 aminoacylation ribozyme variant] please.
Reply: 28.2

Task item: Also, CUACUUCAACCAAUAGGUCUG [Fam1A.1 aminoacylation ribozyme variant] please.
Reply: 1.05

Task item: Also, CCACUUCUAACAAUCGGUCUG [Fam1A.1 aminoacylation ribozyme variant] please.
Reply: 0.834

Task item: Also, GUGCUUCAAACAAUCGGUCUG [Fam1A.1 aminoacylation ribozyme variant] please.
Reply: 195

Task item: Also, AUACAUCAAACAAUCGGUCUG [Fam1A.1 aminoacylation ribozyme variant] please.
Reply: 4.05

Task item: Also, CGAGUUCAAACAAUCGGUCUG [Fam1A.1 aminoacylation ribozyme variant] please.
Reply: 6.84
